Experiment Summary: Volume of distribution at steady state in monkey at 3 mg/kg, iv
Format: ADME, organism-based, Macaca mulatta
Design: dose 3 mg/kg, route intravenous
Assay Context: rhesus monkey, in vivo, read-out: Vdss

- Structure: "CC(C)(C)CC[C@H](c1ccc(C(=O)NCc2nn[nH]n2)cc1)N1C(=O)C(c2cc(Cl)cc(Cl)c2)=N[C@]12CC[C@@H](C(C)(C)C)CC2"
  Vd / L/kg: 0.4

----------
Experiment Summary: Volume of distribution at steady state in rat at 3 mg/kg, iv
Assay type: ADME, organism-based
Set-up: dose 3 mg/kg, route intravenous
Assay Context: in vivo, read-out: Vdss
Observation Type: Vd

- Structure: "CC(C)(C)CC[C@H](c1ccc(C(=O)NCc2nn[nH]n2)cc1)N1C(=O)C(c2cc(Cl)cc(Cl)c2)=N[C@]12CC[C@@H](C(C)(C)C)CC2"
  Value: "1.3 L/kg"

----------
System Name: Glucagon receptor (Homo sapiens, UniProt P47871)
Sequence (P47871 whole entry): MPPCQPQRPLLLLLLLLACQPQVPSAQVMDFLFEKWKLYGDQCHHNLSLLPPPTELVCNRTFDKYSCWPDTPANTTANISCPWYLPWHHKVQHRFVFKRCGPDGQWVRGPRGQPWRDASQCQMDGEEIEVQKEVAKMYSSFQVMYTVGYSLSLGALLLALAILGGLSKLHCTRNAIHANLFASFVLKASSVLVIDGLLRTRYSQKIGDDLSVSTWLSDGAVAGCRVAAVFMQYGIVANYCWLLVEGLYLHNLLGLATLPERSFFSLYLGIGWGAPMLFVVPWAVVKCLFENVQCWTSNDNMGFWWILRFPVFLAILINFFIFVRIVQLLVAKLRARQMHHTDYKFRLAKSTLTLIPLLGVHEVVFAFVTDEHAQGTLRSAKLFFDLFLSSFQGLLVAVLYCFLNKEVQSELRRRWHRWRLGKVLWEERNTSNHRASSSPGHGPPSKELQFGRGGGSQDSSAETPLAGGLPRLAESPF
Experiment Summary: biochemical
Format: cell-based, CHO
Description: Displacement of [125I]-glucagon from recombinant human GCGR expressed in CHO cells after 60 mins by scintillation counting analysis
pIC50: −log10 of the molar value.
Observation Type: pIC50

- Structure: "C[C@H](c1ccc(C(=O)NC[C@@H](O)C(=O)O)cc1)N1C(=O)C(c2cc(Cl)cc(Cl)c2)=N[C@]12CC[C@@H](C(C)(C)C)CC2"
  Observation Type: "pIC50"
  Value: 6.72
- Structure: "CC(C)[C@H]1CC[C@]2(CC1)N=C(c1cc(Cl)cc(Cl)c1)C(=O)N2[C@H](CCC(C)(C)C)c1ccc(C(=O)NCc2nn[nH]n2)cc1"
  Observation Type: "pIC50"
  Value: 7.51
- Structure: "C[C@H](c1ccc(C(=O)NCCC(=O)O)cc1)N1C(=O)C(c2cccc(OC(F)(F)F)c2)=N[C@]12CC[C@@H](C(C)(C)C)CC2"
  Observation Type: "pIC50"
  Value: 6.48
- Structure: "CC(C)(C)CC[C@H](c1ccc(C(=O)NCCC2=NNNN2)cc1)N1C(=O)C(c2cc(Cl)cc(Cl)c2)=N[C@]12CC[C@@H](C(C)(C)C)CC2"
  Observation Type: "pIC50"
  Value: 7.19
- Structure: "CC(C)(C)[C@H]1CC[C@]2(CC1)N=C(c1cc(Cl)cc(Cl)c1)C(=O)N2CCc1ccc(C(=O)NCCC(=O)O)cc1"
  Observation Type: "pIC50"
  Value: 6.77
- Structure: "CC(C)(C)CC[C@H](c1ccc(C(=O)NCc2nn[nH]n2)cc1)N1C(=O)C(c2cccc(Cl)c2)=N[C@]12CC[C@@H](C(C)(C)C)CC2"
  Observation Type: "pIC50"
  Value: 7.85

----------
Experiment Summary: Plasma clearance in dog at 1 mg/kg, iv
Type: ADME, organism-based, Canis lupus familiaris
Design: dose 1 mg/kg, route intravenous
Observation Type: clearance (mL/min/kg)

- Structure: "CC(C)(C)CC[C@H](c1ccc(C(=O)NCc2nn[nH]n2)cc1)N1C(=O)C(c2cc(Cl)cc(Cl)c2)=N[C@]12CC[C@@H](C(C)(C)C)CC2"
  Observation Type: "clearance"
  Quantity Unit: "mL/min/kg"
  Value: 0.3

----------
Experiment Summary: Plasma clearance in rat at 3 mg/kg, iv
Format: ADME, organism-based
Design: dose 3 mg/kg, route intravenous

- Structure: "CC(C)(C)CC[C@H](c1ccc(C(=O)NCc2nn[nH]n2)cc1)N1C(=O)C(c2cc(Cl)cc(Cl)c2)=N[C@]12CC[C@@H](C(C)(C)C)CC2"
  Quantity Unit: "mL/min/kg"
  clearance: 1.8
